experiment: CCTE_Shafer_MEA_acute_cross_correlation_HWHM: CCTE's Neural Acute Assay for Cross Correlation at Half Width at Half Maximum, Shafer Lab (AID 2284026);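 note: percent change per well from pre-dose baseline in spike cross-correlogram half width; hits are a decrease in cross-correlogram half width relative to DMSO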
The source made the active and inactive calls. Rule for the calls: active = hit-call score of the fitted dose curve at least 0.9, where 1 is the maximum; inactive = score below 0.9.

[
  {
    "molecule": "O=C(O)c1cc(N=Nc2ccc(S(=O)(=O)Nc3ccccn3)cc2)ccc1O",
    "AC50": "inactive"
  },
  {
    "molecule": "Cc1[nH]cnc1C[C@H]1CCc2c(C)c3ccccc3n2C1=O",
    "AC50": "30.7 µM (active)"
  },
  {
    "molecule": "On1ccccc1=S",
    "AC50": "inactive"
  },
  {
    "molecule": "CCCCC(CC)COC(=O)CCCCCCCCC(=O)OCC(CC)CCCC (stereo unspecified)",
    "AC50": "inactive"
  },
  {
    "molecule": "Cn1c(=O)c2c(ncn2C)n(C)c1=O",
    "AC50": "inactive"
  },
  {
    "molecule": "CCC(C)(C)C(=O)O[C@H]1C[C@@H](C)C=C2C=C[C@H](C)[C@H](CC[C@@H]3C[C@@H](O)CC(=O)O3)[C@H]21",
    "AC50": "inactive"
  }
]

* * *

read-out: matrix metalloproteinase-3 (MMP3), MMP3 (gene 4314); test: LTEA_HepaRG_MMP3: Life Technologies and Expression Analysis (LTEA) Assay for matrix metalloproteinase-3 (MMP3) using HepaRG (AID 2283519); details: mRNA level, 48 h; actives raise or lower the signal
Activity calls are given as the source filed them. Rule for the calls: active = hit-call score of the fitted dose curve at least 0.9, where 1 is the maximum; inactive = score below 0.9.
Labels: active, inactive

[
  {
    "compound": "Cc1ccc(O)cc1",
    "group_label": "inactive"
  },
  {
    "compound": "Fc1ccccc1[C@@H](F)COC1CCC(Nc2ncnc3[nH]ncc23)CC1 (stereo not given in full)",
    "group_label": "active"
  },
  {
    "compound": "Nc1nc2ncc(CNc3ccc(C(=O)N[C@@H](CCC(=O)O)C(=O)O)cc3)nc2c(=O)[nH]1",
    "group_label": "inactive"
  },
  {
    "compound": "O=C(O)c1cccc(N(Cc2cccnc2)c2ccc(OC(F)F)c(OC(F)F)c2)c1",
    "group_label": "active"
  },
  {
    "compound": "C=CC(=C)CCC=C(C)C",
    "group_label": "inactive"
  },
  {
    "compound": "CN(C)c1ccc(Cc2ccc(N(C)C)cc2)cc1",
    "group_label": "active"
  },
  {
    "compound": "Cn1c(=O)cc(Oc2ccc(F)cc2F)c2cnc(NCC(C)(C)O)nc21",
    "group_label": "active"
  },
  {
    "compound": "Cn1c(=O)c2c(ncn2C)n(C)c1=O",
    "group_label": "inactive"
  },
  {
    "compound": "Nc1ccc(Nc2ccccc2)cc1",
    "group_label": "inactive"
  },
  {
    "compound": "CC(C)CCCCCCCOC(=O)CCCCC(=O)OCCCCCCCC(C)C",
    "group_label": "inactive"
  },
  {
    "compound": "O=C(O)CCN(C1(C(=O)NO)CCCC1)S(=O)(=O)c1ccc(Oc2ccc(F)cc2)cc1",
    "group_label": "inactive"
  },
  {
    "compound": "O=C(NS(=O)(=O)/C=C/c1ccccc1)c1ccc(F)cc1Cl",
    "group_label": "inactive"
  },
  {
    "compound": "CC(C)c1cccc(C(C)C)c1N1C(=O)c2ccc(O)cc2C1=O",
    "group_label": "active"
  },
  {
    "compound": "CCOCCO",
    "group_label": "inactive"
  },
  {
    "compound": "CCOC(=O)COc1ccc2c(c1)CC(NCC(O)c1cccc(Cl)c1)CC2 (stereo not given)",
    "group_label": "inactive"
  },
  {
    "compound": "CC(=O)OC[C@H]1O[C@@](COC(C)=O)(O[C@H]2O[C@H](COC(C)=O)[C@@H](OC(C)=O)[C@H](OC(C)=O)[C@H]2OC(C)=O)[C@@H](OC(C)=O)[C@@H]1OC(C)=O",
    "group_label": "inactive"
  },
  {
    "compound": "O=C(OC[C@H]1O[C@@H](OC(=O)c2cc(O)c(O)c(OC(=O)c3cc(O)c(O)c(O)c3)c2)[C@H](OC(=O)c2cc(O)c(O)c(OC(=O)c3cc(O)c(O)c(O)c3)c2)[C@@H](OC(=O)c2cc(O)c(O)c(OC(=O)c3cc(O)c(O)c(O)c3)c2)[C@@H]1OC(=O)c1cc(O)c(O)c(OC(=O)c2cc(O)c(O)c(O)c2)c1)c1cc(O)c(O)c(OC(=O)c2cc(O)c(O)c(O)c2)c1",
    "group_label": "active"
  },
  {
    "compound": "Cc1c(-c2cccnc2)c2ccccc2n1CCCCC(=O)O",
    "group_label": "inactive"
  },
  {
    "compound": "CCOC(=O)c1ccc(C2CCC(NC[C@H](O)COc3ccc(O)c(NS(C)(=O)=O)c3)CC2)cc1 (stereo not given in full)",
    "group_label": "inactive"
  },
  {
    "compound": "CCCC(=O)OCC",
    "group_label": "inactive"
  }
]

* * *

read-out: Interleukin-1 alpha (IL1a), IL1A (gene 3552); experiment: BSK_KF3CT_IL1a: BioMAP Diversity Plus: KF3CT Assay for Interleukin-1 alpha (IL1a) Biomarker Activity (AID 2283070); details: primary human keratinocytes with fibroblasts; actives raise or lower the signal
The source made the active and inactive calls. The calls were made as follows: active = hit-call score of the fitted dose curve at least 0.9, where 1 is the maximum; inactive = score below 0.9.
Labels: TRUE = active, FALSE = inactive

[
  {
    "compound": "CCNc1ccccc1",
    "group_label": "FALSE"
  },
  {
    "compound": "CCn1nc(Cc2ccccc2)cc1C1CCN(C[C@H]2C[C@H](N(C)[C@@H](C(=O)O)C(C)C)C[C@@H]2c2cccc(F)c2)CC1",
    "group_label": "FALSE"
  },
  {
    "compound": "CCCCC(CC)COC(=O)c1ccc(C(=O)OCC(CC)CCCC)cc1 (configuration not stated)",
    "group_label": "FALSE"
  },
  {
    "compound": "CCOc1cccc(-n2cc(C(=O)N3CCN(c4cc(C(=O)O)c5ccccc5c4)CC3)nc2-c2ccc(C)cc2)c1",
    "group_label": "TRUE"
  },
  {
    "compound": "CC(C)c1cccc(C(C)C)c1N1C(=O)c2ccc(O)cc2C1=O",
    "group_label": "TRUE"
  },
  {
    "compound": "CCOC(=O)COc1ccc2c(c1)CC(NCC(O)c1cccc(Cl)c1)CC2 (configuration not stated)",
    "group_label": "FALSE"
  },
  {
    "compound": "C1N2CN3CN1CN(C2)C3",
    "group_label": "FALSE"
  },
  {
    "compound": "O=C(O)CCN(C1(C(=O)NO)CCCC1)S(=O)(=O)c1ccc(Oc2ccc(F)cc2)cc1",
    "group_label": "FALSE"
  },
  {
    "compound": "CC1=CC(=O)CC(C)(C)C1",
    "group_label": "FALSE"
  },
  {
    "compound": "CC(C)=CCCC(C)=CC=O",
    "group_label": "FALSE"
  },
  {
    "compound": "O=P(OC(CCl)CCl)(OC(CCl)CCl)OC(CCl)CCl",
    "group_label": "FALSE"
  },
  {
    "compound": "COCCOCCOCCOC",
    "group_label": "FALSE"
  }
]

* * *

tested on: SRY-box transcription factor 17 (SOX17) Protein Expression, Deisenroth Lab, SOX17 (gene 64321); assay: CCTE_Deisenroth_DEVTOX-GLR_legacy_Sox17: (Legacy) CCTE's DevTox GLR-Endo Assay Evaluation of SRY-box transcription factor 17 (SOX17) Protein Expression, Deisenroth Lab (AID 2284341); settings: actives raise or lower the signal
Activity calls are given as the source filed them. The calls were made as follows: active = hit-call score of the fitted dose curve at least 0.9, where 1 is the maximum; inactive = score below 0.9.
Outcomes: True = active, False = inactive

[
  {
    "molecule": "NC(=O)NO",
    "group_label": "False"
  },
  {
    "molecule": "C[C@](N)(Cc1ccc(O)c(O)c1)C(=O)O",
    "group_label": "False"
  },
  {
    "molecule": "CC[C@H](C)C(=O)O[C@H]1C[C@@H](C)C=C2C=C[C@H](C)[C@H](CC[C@@H]3C[C@@H](O)CC(=O)O3)[C@H]21",
    "group_label": "True"
  },
  {
    "molecule": "O=C1CCC(N2C(=O)c3ccccc3C2=O)C(=O)N1 (stereo not given)",
    "group_label": "True"
  },
  {
    "molecule": "Cn1c(=O)c2c(ncn2C)n(C)c1=O",
    "group_label": "False"
  }
]

* * *

read-out: CYP2C9 (gene 1559); experiment: LTEA_HepaRG_CYP2C9: Life Technologies and Expression Analysis (LTEA) Assay for CYP2C9 using HepaRG (AID 2283484); conditions: mRNA level, 48 h; actives raise or lower the signal
The source made the active and inactive calls. How the source made its calls: active means hit-call score of the fitted dose curve at least 0.9, where 1 is the maximum; inactive means score below 0.9.
measure_name: AC50

[
  {
    "compound": "CCN(C(=O)c1cc(C)cc(OC[C@H](C)Nc2ccncc2)c1)C(C)C",
    "observed": "56.6 µM (active)"
  },
  {
    "compound": "CCOCCO",
    "observed": "inactive"
  },
  {
    "compound": "COc1ccc2sc(C(=O)Nc3nnn[nH]3)c(OC(C)C)c2c1",
    "observed": "50 µM (active)"
  },
  {
    "compound": "CC(C)CC(C)(O)C#CC(C)(O)CC(C)C (configuration not stated)",
    "observed": "inactive"
  },
  {
    "compound": "CCCCCCCCCCCCc1ccccc1",
    "observed": "inactive"
  },
  {
    "compound": "CCCCCCCCO",
    "observed": "inactive"
  },
  {
    "compound": "Nc1nc2ncc(CNc3ccc(C(=O)N[C@@H](CCC(=O)O)C(=O)O)cc3)nc2c(=O)[nH]1",
    "observed": "inactive"
  }
]
